I'd appreciate it if you could supply composite z-score values for the items below.
# PROTOCOL DETAILS: small-molecule binders of probe aNOTCH2, primary screen, biochemical, small-molecule microarray, 635/667 nm fluorescence (AID 1121);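 note: score merges feature fluorescence read at 667 nm with its signal to noise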
# EXPERIMENTAL CONTEXT: higher = more signal
Numbers only.

Examples from the recorded data:
CC(C)N1C(=O)[C@@]2(Cc3ccccc31)c1ccccc1C(=O)N(Cc1ccccc1)[C@H]2c1ccc(CO)cc1 ... -0.205
[N-]=[N+]=Nc1ccccc1C[C@@]1(C(=O)NCc2ccccc2)N=C(c2ccc(OCCCO)cc2)O[C@@H]1c1ccccc1 ... 0.309
C=CCC(OC(C)=O)[C@@H]1[C@@H](N(Cc2ccc(-c3ccccc3)cc2)C(=O)Cc2ccc(OC)cc2)c2cc(OCCCO)ccc2N1C(=O)c1ccc2ccccc2c1 (some centres undefined) ... -0.176
COC(=O)[C@@]1(Cc2ccccc2)[C@H]2c3cc(C(=O)N(C)C)n(Cc4ccc(Cl)c(C(F)(F)F)c4)c3C[C@H]2CN1C(=O)c1ccccc1 ... 0.445
C=C(C(=O)CC[C@@H](OC(=O)c1ccccc1-c1ccccc1C(=O)O)c1ccc(OCCO)cc1)C(C)C ... -0.0876
[N-]=[N+]=NCc1ccccc1[C@H]1OC(c2ccc(OCCCO)cc2)=N[C@@]1(Cc1ccccc1N=[N+]=[N-])C(N)=O ... -0.229
CC[C@@H](O[Si](C#C[Si](C(C)C)(C(C)C)C(C)C)(C(C)C)C(C)C)c1cn(Cc2cccc(Cl)c2)nn1 ... -0.0495
C=CCNC(=O)[C@@H]1[C@H]2C(=O)O[C@H](c3ccccc3)[C@H](c3ccccc3)N2[C@H](c2ccc(O)cc2)[C@@]12C(=O)Nc1ccc(C#CC3=CCCCC3)cc12 ... -0.0857

// switching to the query compound
Ask: So what's the measured composite z-score for this one? [N-]=[N+]=NCc1ccccc1C[C@@]1(C(=O)NCCN2CCOCC2)N=C(c2ccc(OCCCO)cc2)O[C@@H]1c1ccccc1
Reply: -0.106

----------
I'd appreciate it if you could supply composite z-score values for the items below.
# Test system: PRMT1 (protein arginine N-methyltransferase 1)
# PROTOCOL DETAILS: PRMT1 binders on small-molecule microarrays, primary screen, biochemical, small-molecule microarray, 635 nm fluorescence (AID 1088);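 note: binding of Prmt1 protein to compounds spotted on small-molecule microarray slides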
# EXPERIMENTAL CONTEXT: small-molecule microarray binding, higher = more signal
Answers are plain numbers.

Examples from the recorded data:
COCCOC(=O)N1C(=O)[C@@]2(c3cc(C#CCC(C(=O)OC)C(=O)OC)ccc31)[C@H](C(=O)N1CCc3cc(OC)c(OC)cc3C1)[C@H]1C(=O)O[C@H](c3ccccc3)[C@H](c3ccccc3)N1[C@@H]2c1ccccc1OCCO ... 1.53
COc1ccc([Si](C)(C)[C@H]2[C@H](CCO)O[C@@]3(C(=O)N(Cc4ccccc4)c4ccc(NC(=O)[C@H](C)O)cc43)[C@@H]2C)cc1 ... 1.44

// switching to the query compound
Ask: So what's the measured composite z-score for this one? O=C1OCCC/C=C\[C@H]2OC34C=CCN(Cc5ccccc5)C(=O)[C@H]3N(CCO)C(=O)[C@@H]4C12 (stereo partly drawn)
Reply: 0.216

----------
# STUDY SYSTEM: Follistatin-related protein 3 (Homo sapiens)
# PROTOCOL DETAILS: FSTL3 binders on small-molecule microarrays, primary screen, biochemical, small-molecule microarray, 635 nm fluorescence (AID 1105);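 note: score merges emission near 667 nm and signal to noise per printed spot across three slides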
# EXPERIMENTAL CONTEXT: FSTL3 binding, higher = more signal
I'd appreciate it if you could supply composite z-score values for the items below.
Answers are plain numbers.

CN1C(=O)C2C(C1=O)C1C=C(CCCO)C2C(C2CC2)N1C (configuration not stated) ... -0.694
CCOC(=O)C1=CCC(c2ccncc2)N(S(=O)(=O)c2ccc(C)cc2)C1 (configuration not stated) ... 1.05
COc1cc2c(cc1OC)CN(C(=O)[C@@H]1[C@H]3C(=O)O[C@H](c4ccccc4)[C@H](c4ccccc4)N3[C@H](c3ccc(O)cc3)[C@@]13C(=O)Nc1ccc(C#CC4=CCCCC4)cc13)CC2 ... 1.03
COc1ccc(C(O)C2C=CC3C(=O)N(C)C(=O)C3N2Nc2ccccc2)cc1 (configuration not stated) ... 0.441
CC[C@@H]1C=C(C(=O)O)[C@H](c2cccc(Cl)c2)N1S(=O)(=O)c1ccc(C)cc1 ... -0.614
O=C1C2C=CC(C(O)C3CC=CCC3)N(Nc3ccc([N+](=O)[O-])cc3)C2C(=O)N1c1ccccc1 (configuration not stated) ... 1.44

Ask: So what's the measured composite z-score for this one? COCCOC(=O)N1C(=O)[C@@]2(c3cc(C#CCC(C(=O)OC)C(=O)OC)ccc31)[C@H](C(N)=O)[C@H]1C(=O)O[C@H](c3ccccc3)[C@H](c3ccccc3)N1[C@@H]2c1ccccc1OCCO
Reply: 1.09

----------
# PROTOCOL DETAILS: small-molecule binders of probe aInhba, primary screen, biochemical, small-molecule microarray, 635/667 nm fluorescence (AID 1148);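 note: score merges 667nm spot fluorescence with signal-to-noise for antibody binding to printed compounds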
# EXPERIMENTAL CONTEXT: higher = more signal
I'd appreciate it if you could supply composite z-score values for the items below.
Answers are plain numbers.

Examples from the recorded data:
CN(C)C(=O)[C@]1(CCS(=O)(=O)c2ccccc2)N=C(c2ccc(OCCCO)cc2)O[C@@H]1c1ccccc1CN=[N+]=[N-] ... -0.0332
Cc1ccc(S[C@]2(C(=O)NCc3ccccc3)CC(=O)N(Cc3ccccc3Cl)[C@@H]2c2ccc(CO)cc2)cc1 ... 0.298
C=CCC(OC(C)=O)[C@@H]1[C@@H](N(Cc2ccc(-c3ccccc3)cc2)C(=O)Cc2ccc(OC)cc2)c2cc(OCCCO)ccc2N1C(=O)c1ccc2ccccc2c1 (some centres undefined) ... -0.153

Take each entry in turn and give its composite z-score.
1. C[N+](C)(C)CCCC[C@@H]1NC(=O)[C@H]2C[C@@H](C(=O)NCCCCCN)[C@@H](c3ccc(O)cc3)N2C1=O
2. COc1c(C)cc(-c2nc(-c3ccccc3)c3c(c2C)CO[Si]3(C(C)C)C(C)C)cc1C
3. COCCOC(=O)N1C(=O)[C@@]2(c3cc(C#CCNC(N)=O)ccc31)[C@H](c1ccc(O)cc1)N1[C@H](c3ccccc3)[C@H](c3ccccc3)OC(=O)[C@H]1[C@@H]2C(=O)N1CCc2cc(OC)c(OC)cc2C1

Reply:
1: 0.228; 2: -0.0604; 3: -0.0448

Take each entry in turn and give its composite z-score.
1. C[N+](C)(C)CCCC[C@@H]1NC(=O)[C@H]2C[C@@H](C(=O)O)[C@@H](c3ccc(O)cc3)N2C1=O
2. COC(=O)[C@@]1(Cc2ccc(F)cc2)[C@H]2c3cc(C(=O)N4CCCC4)n(Cc4ccc(OC(F)(F)F)cc4)c3C[C@H]2CN1C(=O)c1ccccc1
3. CC(C)C[C@@H]1NC(=O)[C@@H]2C[C@H](C(=O)NCCCCCCNC(=O)CS)[C@H](c3ccc(O)cc3)N2C1=O
4. O=C1C2C=CC(C(O)C3CCCCC3)N(Nc3ccccc3F)C2C(=O)N1c1ccccc1 (centres undefined)

Reply:
[0.0051, 0.0306, -0.0933, 0.448]

Take each entry in turn and give its composite z-score.
1. CO[C@H]1O[C@H](CO)[C@@H](OC(=O)CCc2ccccc2)[C@@H]2OC(=O)[C@@H](Cc3ccc4ccccc4c3)C/C=C/C[C@H](Cc3ccc4ccccc4c3)C(=O)O[C@@H]12
2. CC[C@@H](O[Si](C#C[Si](C(C)C)(C(C)C)C(C)C)(C(C)C)C(C)C)c1cn([C@H](CO)Cc2ccccc2)nn1
3. CC1CC/C=C\[C@H]2OC34C=CCN(C(C)C)C(=O)[C@H]3N(C(C)CO)C(=O)[C@@H]4C2C(=O)O1 (some centres undefined)
4. COc1ccc(NN2C(C(O)c3ccccc3)C=CC3C(=O)N(C4CCCCC4)C(=O)C32)cc1 (centres undefined)
5. COc1cccc(C)c1NC(=O)O[C@H]1[C@H](OC(=O)Nc2ccccc2-c2ccccc2)[C@@H](OC(=O)Nc2ccccc2-c2ccccc2)[C@@H](OC)O[C@@H]1CO
6. COc1ccc(NN2C(C(O)c3ccc(F)cc3)C=CC3C(=O)N(C4CCCCC4)C(=O)C32)cc1 (centres undefined)
7. CC(C)C(=C=CC[C@H](O)c1cccc(OCCO)c1)C[C@H](O)c1ccccn1
8. CCOC(=O)C1=CC[C@@H](c2ccccc2)N(S(=O)(=O)c2ccc(C)cc2)[C@@H]1C#N

Reply:
1: -0.13; 2: 0.0104; 3: 1.09; 4: 0.19; 5: 0.179; 6: 0.112; 7: -0.0986; 8: -0.128

----------
# STUDY SYSTEM: Alpha-bungarotoxin (Bungarus multicinctus) (UniProt P60615)
# Sequence (P60615 whole entry, looked up): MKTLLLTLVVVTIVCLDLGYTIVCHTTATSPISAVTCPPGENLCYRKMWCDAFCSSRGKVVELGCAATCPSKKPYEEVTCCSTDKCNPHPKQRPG
# PROTOCOL DETAILS: alpha-bungarotoxin binders on microarray, profiling panel, artefact control for SMM control protein annotation, biochemical, small-molecule microarray, Alexa647 label, 635/667 nm fluorescence (AID 1117)
# EXPERIMENTAL CONTEXT: alpha-BTX-A647 binding fluorescence, higher = more signal
If the reported composite z-score equals or exceeds 1, assign Fulfilled. If not, assign Not fulfilled.

Examples from the recorded data:
O=C1O[C@@H](c2ccccc2)[C@@H](c2ccccc2)N2[C@@H](c3ccc(OCCO)cc3)[C@]3(C(=O)Nc4ccc(C#CC5=CCCCC5)cc43)[C@@H](C(=O)Nc3nc4ccccc4s3)[C@H]12 ... Not fulfilled
CCCNC(=O)[C@@]1(Sc2ccc(C)cc2)CC(=O)N(Cc2cc(C(F)(F)F)cc(C(F)(F)F)c2)[C@@H]1c1ccc(CO)cc1 ... Not fulfilled

Ask: Entry COc1ccc(CCNC(=O)[C@@H]2c3ccccc3C(=O)N(C(C)C)[C@H]2c2ccc(CO)cc2)cc1 : is its composite z-score no less than 1?
Reply: Fulfilled

Ask: Entry O=C1NC(=O)C2C1C=CC(C(O)C(c1ccccc1)c1ccccc1)N2Nc1ccccn1 (centres undefined) : is its composite z-score no less than 1?
Reply: Not fulfilled

Ask: Entry Cc1ccc(S[C@]2(C(=O)NCc3ccccc3)CC(=O)N(Cc3ccccc3C(F)(F)F)[C@@H]2c2ccc(CO)cc2I)cc1 : is its composite z-score no less than 1?
Reply: Not fulfilled
